Molecular target: HLA-A*02:16
Test: IEDB peptide-MHC binding, purified MHC/direct/fluorescence; filed as Kd, often an IC50 or EC50 that approximates it; bounds were set here for any values at or beyond the usual limits of such assays
Settings: source organism: Bacillus cereus NVH0597-99

RESIDUE SEQUENCE: ITMYVAFEQ
Kd: ≥ 20 µM

---

Molecular target: HLA-B*15:17
Experiment: IEDB peptide-MHC binding, purified MHC/direct/fluorescence; filed as Kd, often an IC50 or EC50 that approximates it; bounds were set here for any values at or beyond the usual limits of such assays
Settings: source organism: Cryptosporidium parvum Iowa II
MEASURED QUANTITY: Kd

RESIDUE SEQUENCE: DHIPIINTL
RECORDED MEASUREMENT: ≥ 20 µM
//
RESIDUE SEQUENCE: ILTRLALFF
RECORDED MEASUREMENT: ≥ 20 µM

Provenance of the data: the Immune Epitope Database (IEDB)
